# assayed-target: kinases (Homo sapiens, UniProt P07949, V804M)
# Construct: purchased Eurofins/DiscoveRx; host or cells: E. coli BL21-derived host (T7 phage display) for most kinases; HEK-293 for the rest
# Sequence (P07949 29-1114 V804M): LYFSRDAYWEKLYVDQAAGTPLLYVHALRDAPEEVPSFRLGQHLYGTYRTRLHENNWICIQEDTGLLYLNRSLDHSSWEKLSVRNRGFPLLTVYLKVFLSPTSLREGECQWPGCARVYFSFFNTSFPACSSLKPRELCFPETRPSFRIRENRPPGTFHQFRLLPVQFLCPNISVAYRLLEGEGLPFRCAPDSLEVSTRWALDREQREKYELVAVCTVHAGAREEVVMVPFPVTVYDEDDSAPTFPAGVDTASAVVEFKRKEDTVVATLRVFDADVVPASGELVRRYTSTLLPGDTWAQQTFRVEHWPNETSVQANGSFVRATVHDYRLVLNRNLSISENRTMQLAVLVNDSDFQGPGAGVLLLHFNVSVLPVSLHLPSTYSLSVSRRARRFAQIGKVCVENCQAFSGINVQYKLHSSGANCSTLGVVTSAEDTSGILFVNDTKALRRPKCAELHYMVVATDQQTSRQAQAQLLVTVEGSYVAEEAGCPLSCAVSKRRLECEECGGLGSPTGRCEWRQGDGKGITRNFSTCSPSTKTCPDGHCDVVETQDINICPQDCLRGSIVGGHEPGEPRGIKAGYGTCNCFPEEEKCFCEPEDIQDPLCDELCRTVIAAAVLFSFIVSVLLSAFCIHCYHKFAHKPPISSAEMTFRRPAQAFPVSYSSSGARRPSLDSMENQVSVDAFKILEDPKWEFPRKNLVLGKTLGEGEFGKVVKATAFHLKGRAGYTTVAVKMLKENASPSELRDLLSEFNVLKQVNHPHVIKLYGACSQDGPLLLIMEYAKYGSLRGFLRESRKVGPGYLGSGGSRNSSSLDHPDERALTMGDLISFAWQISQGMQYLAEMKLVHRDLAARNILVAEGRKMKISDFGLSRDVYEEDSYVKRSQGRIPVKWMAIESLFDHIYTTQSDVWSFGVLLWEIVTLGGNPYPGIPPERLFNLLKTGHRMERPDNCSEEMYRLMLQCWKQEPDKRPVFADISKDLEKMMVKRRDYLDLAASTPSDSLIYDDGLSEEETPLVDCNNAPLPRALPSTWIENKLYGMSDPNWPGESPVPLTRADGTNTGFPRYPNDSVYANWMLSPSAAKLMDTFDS
# experiment-summary: KINOMEscan kinase binding assay (Eurofins/DiscoveRx), % Ctrl
# experimental-parameters: 1 μM; RET(V804M)
readout: % Ctrl, RET(V804M) (% Ctrl)

Examples from the recorded data:
{"molecule-smiles": "Cc1cc2c([nH]1)/C=C1\\C(=O)Nc3cc(Cl)c(cc31)OCCOCCN(C)C2=O", "assayed-target": "kinases (Homo sapiens, UniProt P07949, V804M)", "readout": "% Ctrl, RET(V804M)", "value-measured": 0.15}
{"molecule-smiles": "Cc1cc2c([nH]1)/C=C1\\C(=O)Nc3ccc(cc31)-c1cnn(C)c1CNCCN(C)C2=O", "assayed-target": "kinases (Homo sapiens, UniProt P07949, V804M)", "readout": "% Ctrl, RET(V804M)", "value-measured": 0}

I. Cc1cc2c([nH]1)/C=C1\C(=O)Nc3ccc(cc31)-c1c(C)n[nH]c1CNCCN(C)C2=O
II. Cc1cc2c([nH]1)/C=C1\C(=O)Nc3ccc(cc31)CN(C)C(=O)COCCNC2=O
III. Cc1cc2c([nH]1)/C=C1\C(=O)Nc3cnc(nc31)N(C)CCCOCCN(C)C2=O
Query: Thanks in advance: please rank these 3 entries by % Ctrl, RET(V804M), highest to lowest. A complete answer lists every label in the requested sequence.
Response: III, II, I
